- subject_of_test: UniProt P04585
- experimental_protocol: In vitro HIV-1 integrase assay (3′-processing and strand transfer) with 21-mer U5 LTR oligonucleotide
- Format: biochemical
- condition_set: strand transfer step of integration reaction; listed as 9; read-out: IC50 Strand transfer
measure: IC50 (nM)

{"molecule": "O=C(C=C(O)c1nnn[nH]1)c1c[nH]c2ccc(F)cc12 [Compound P18, reference compound]", "units_label": "nM", "experimental_value": 1800}

###

- subject_of_test: HIV-1 integrase (Human immunodeficiency virus type 1 group M subtype B, UniProt P04585)
- experimental_protocol: In vitro HIV-1 integrase assay (3′-processing and strand transfer) with 21-mer U5 LTR oligonucleotide
- Format: biochemical
- condition_set: strand transfer step of integration reaction; listed as 14; read-out: IC50 Strand transfer
measure: IC50 (µM)

{"compound": "O=C(C=C(O)c1nnn[nH]1)c1c[nH]c2ccc(F)cc12 [Compound P31, reference compound]", "measure": "IC50", "units_label": "µM", "experimental_value": 6.56}

###

- subject_of_test: HIV-1 integrase (Human immunodeficiency virus type 1 group M subtype B)
- experimental_protocol: In vitro HIV-1 integrase assay (3′-processing and strand transfer) with 21-mer U5 LTR oligonucleotide
- Format: biochemical
- condition_set: 3′-processing step of integration reaction; read-out: IC50 3′-Processing

{"molecule": "Cc1cc(C)cc(C(=O)C=C(O)C(=O)O)c1", "IC50": "> 100 µM"}
{"molecule": "O=C(O)C(O)=CC(=O)c1cccc(C(=O)c2ccccc2)c1", "IC50": "> 100 µM"}
{"molecule": "COc1ccc(Cn2nnnc2C(O)=CC(=O)c2c[nH]c3ccccc23)cc1 [Compound P23, reference compound]", "IC50": "> 100 µM"}

###

- Tested on: HIV-1
- experimental_protocol: microbe, parasite or virus in culture
- Assay type: cell-based
measure: Luciferase Activity Relative to No Drug Control (Avg ± S.E.) (%)

{"compound": "O=C(O)C(O)=CC(=O)c1cccc(C(=O)c2ccccc2)c1 [Compound I]", "experimental_value": 19}
{"compound": "O=C(C=Cc1ccc(O)c(O)c1)Nc1cccc(C(=O)C=C(O)C(=O)O)c1 [Compound G]", "experimental_value": 24}
{"compound": "[N-]=[N+]=NCc1cc(CN=[N+]=[N-])cc(C(=O)/C=C(\\O)C(=O)O)c1 [Compound A]", "experimental_value": 5}
{"compound": "O=C(O)C(O)=CC(=O)c1cccc(OCc2ccccc2)c1 [Compound H]", "experimental_value": 14}
{"compound": "COc1ccc(Cn2nnnc2C(O)=CC(=O)c2c[nH]c3ccc(F)cc23)cc1 [Compound P22, reference compound]", "experimental_value": 98}
{"compound": "COc1ccc(Cn2nnnc2C(O)=CC(=O)c2c[nH]c3ccccc23)cc1 [Compound P23, reference compound]", "experimental_value": 104}
{"compound": "[N-]=[N+]=Nc1cccc(C(=O)C=C(O)C(=O)O)c1 [Compound D]", "experimental_value": 137}
{"compound": "COc1ccc(Cn2nnnc2C(O)=CC(=O)c2c[nH]c3ccc(Cl)cc23)cc1 [Compound P20, reference compound]", "experimental_value": 133}
{"compound": "O=C(C=C(O)c1nnn[nH]1)c1c[nH]c2ccc(F)cc12 [Compound P31, reference compound]", "experimental_value": 61}
{"compound": "O=C(O)C(O)=CC(=O)c1ccc(Oc2ccccc2)cc1 [Compound F]", "experimental_value": 261}
{"compound": "[N-]=[N+]=NCc1ccc(C(=O)C=C(O)C(=O)O)cc1CN=[N+]=[N-] [Compound C]", "experimental_value": 36}
{"compound": "O=C(C=C(O)c1nnn[nH]1)c1c[nH]c2ccccc12 [Compound P4, reference compound]", "experimental_value": 116}
{"compound": "[N-]=[N+]=NCc1cccc(C(=O)C=C(O)C(=O)O)c1 [Compound B]", "experimental_value": 15}
{"compound": "Cc1cc(C)cc(C(=O)C=C(O)C(=O)O)c1 [Compound E]", "experimental_value": 99}
{"compound": "O=C(C=C(O)c1nnn[nH]1)c1c[nH]c2ccc(F)cc12 [Compound P18, reference compound]", "experimental_value": 59}

###

- subject_of_test: HIV-1 integrase (Human immunodeficiency virus type 1 group M subtype B)
- experimental_protocol: In vitro HIV-1 integrase assay (3′-processing and strand transfer) with 21-mer U5 LTR oligonucleotide
- Type: biochemical
- condition_set: 3′-processing step of integration reaction; listed as 9; read-out: IC50 3′-Processing

{"compound": "O=C(C=C(O)c1nnn[nH]1)c1c[nH]c2ccc(F)cc12 [Compound P18, reference compound]", "IC50 [µM]": 79}

###

- subject_of_test: UniProt:P04585
- experimental_protocol: In vitro HIV-1 integrase assay (3′-processing and strand transfer) with 21-mer U5 LTR oligonucleotide
- Type: biochemical
- condition_set: strand transfer step of integration reaction; read-out: IC50 Strand transfer
pIC50: −log10 of the molar value.
measure: pIC50

{"compound": "[N-]=[N+]=NCc1cccc(C(=O)C=C(O)C(=O)O)c1", "experimental_value": 5.82}
{"compound": "COc1ccc(Cn2nnnc2C(O)=CC(=O)c2c[nH]c3ccccc23)cc1 [Compound P23, reference compound]", "experimental_value": 5.16}
{"compound": "COc1ccc(Cn2nnnc2C(O)=CC(=O)c2c[nH]c3ccc(Cl)cc23)cc1 [Compound P20, reference compound]", "experimental_value": 5.89}
{"compound": "O=C(O)C(O)=CC(=O)c1cccc(OCc2ccccc2)c1", "experimental_value": 6.46}
{"compound": "O=C(C=Cc1ccc(O)c(O)c1)Nc1cccc(C(=O)C=C(O)C(=O)O)c1", "experimental_value": 5.33}
{"compound": "O=C(O)C(O)=CC(=O)c1cc(OCc2ccccc2)cc(OCc2ccccc2)c1 [Compound P10, reference compound]", "experimental_value": 5.99}

###

- subject_of_test: HIV-1 integrase (Human immunodeficiency virus type 1 group M subtype B, UniProt P04585)
- experimental_protocol: In vitro HIV-1 integrase assay (3′-processing and strand transfer) with 21-mer U5 LTR oligonucleotide
- Assay type: biochemical
- condition_set: 3′-processing step of integration reaction; listed as 14; read-out: IC50 3′-Processing
measure: IC50 (µM)

{"compound": "O=C(C=C(O)c1nnn[nH]1)c1c[nH]c2ccc(F)cc12 [Compound P31, reference compound]", "subject_of_test": "HIV-1 integrase (Human immunodeficiency virus type 1 group M subtype B, UniProt P04585)", "experimental_value": 82}

###

- subject_of_test: HIV-1 integrase (Human immunodeficiency virus type 1 group M subtype B, UniProt P04585)
- experimental_protocol: In vitro HIV-1 integrase assay (3′-processing and strand transfer) with 21-mer U5 LTR oligonucleotide
- Type: biochemical
- condition_set: 3′-processing step of integration reaction; read-out: IC50 3′-Processing

{"molecule": "[N-]=[N+]=Nc1cccc(C(=O)C=C(O)C(=O)O)c1 [Compound D]", "IC50": "> 100 µM"}
{"molecule": "[N-]=[N+]=NCc1cccc(C(=O)C=C(O)C(=O)O)c1 [Compound B]", "IC50": "> 100 µM"}
{"molecule": "O=C(O)C(O)=CC(=O)c1cc(OCc2ccccc2)cc(OCc2ccccc2)c1 [Compound P10, reference compound]", "IC50": "> 1000 µM"}
{"molecule": "[N-]=[N+]=NCc1ccc(C(=O)C=C(O)C(=O)O)cc1CN=[N+]=[N-] [Compound C]", "IC50": "> 100 µM"}
{"molecule": "O=C(C=Cc1ccc(O)c(O)c1)Nc1cccc(C(=O)C=C(O)C(=O)O)c1 [Compound G]", "IC50": "9 µM"}
{"molecule": "O=C(C=C(O)c1nnn[nH]1)c1c[nH]c2ccccc12 [Compound P4, reference compound]", "IC50": "> 100 µM"}
{"molecule": "O=C(O)C(O)=CC(=O)c1ccc(Oc2ccccc2)cc1 [Compound F]", "IC50": "> 100 µM"}
{"molecule": "[N-]=[N+]=NCc1cc(CN=[N+]=[N-])cc(C(=O)/C=C(\\O)C(=O)O)c1 [Compound A]", "IC50": "> 100 µM"}

Every entry's value here was drawn from patent US20060063938A1.
